- Test target: Cellular tumor antigen p53 (Homo sapiens)
- Experiment summary: ATG_p53_CIS: Attagene CIS-FACTORIAL HepG2 Assay for human p53 Transcription Factor (AID 2282994)
- Condition: HepG2 p53 cis-element reporter, Attagene mRNA; actives raise or lower the signal
The source made the active and inactive calls. Rule for the calls: active = hit-call score of the fitted dose curve at least 0.9, where 1 is the maximum; inactive = score below 0.9.
API: response.call in active, inactive

Previously resolved entries follow.
>>> discrete_label("O=C(O)CN(CCN(CC(=O)O)CC(=O)O)CCN(CC(=O)O)CC(=O)O")
"inactive"
>>> discrete_label("CCCCNC(=O)NS(=O)(=O)c1ccc(C)cc1")
"inactive"

Test call for this compound, please: BrC1CCC(Br)C(Br)CCC(Br)C(Br)CCC1Br (stereo not given) inactive

Quick one: CCCCCCCCC inactive

Quick one: O=Nc1ccc(Nc2ccccc2)cc1 active

Quick one: O=C[C@@H](O)[C@H](O)[C@H](O)CO inactive

Quick one: O=C(O)c1cccc(C(F)(F)F)c1 inactive

Quick one: CC[Si](OC(C)=O)(OC(C)=O)OC(C)=O inactive

Quick one: CC1(C)CCC(C)(C)c2cc(C(=O)Nc3ccc(C(=O)O)cc3)ccc21 active

Quick one: CCN(CC)c1ccc2c(-c3ccccc3C(=O)O)c3ccc(=[N+](CC)CC)cc-3oc2c1 inactive

* * *

- Read-out: Urokinase-type plasminogen activator receptor (uPAR), PLAUR (gene 5329)
- Experiment summary: BSK_4H_uPAR: BioMAP Diversity Plus: 4H Assay for Urokinase-type plasminogen activator receptor (uPAR) Biomarker Activity (AID 2283030)
- Condition: primary human endothelial cells (HUVEC); actives raise or lower the signal
Activity calls are given as the source filed them. How the source made its calls: active means hit-call score of the fitted dose curve at least 0.9, where 1 is the maximum; inactive means score below 0.9.
Parameter measured: AC50

>>> measured("O=C(O)c1cn(C2CC2)c2cc(N3CCNCC3)c(F)cc2c1=O")
"inactive"
>>> measured("CCC(=O)OCc1ccccc1")
"inactive"
>>> measured("C=C(C)C(=O)O[C@H]1C[C@@H]2CC[C@@]1(C)C2(C)C")
"9.5 µM (active)"
>>> measured("Cc1ccc(Nc2ccc(O)c3c2C(=O)c2ccccc2C3=O)cc1")
"inactive"
>>> measured("Cc1ccc(O)c(C(C)(C)C)c1")
"28.2 µM (active)"

Would you mind telling me what AC50 value was observed for O=C1CCCCCCCCCCCCCCO1 ? 23.7 µM (active)

Quick one: Nc1cc([N+](=O)[O-])ccc1Cl inactive

Quick one: C#C[C@]1(O)CC[C@H]2[C@@H]3CCC4=Cc5oncc5C[C@]4(C)[C@H]3CC[C@@]21C 3.97 µM (active)

Quick one: C[C@H]1C[C@@H]2[C@H]([C@@H](O)C[C@@]3(C)[C@H]2CC[C@]3(O)C(=O)CO)[C@@]2(C)C=CC(=O)C=C12 inactive

Quick one: CC1COc2ccccc2N1C(=O)C(Cl)Cl (stereo not drawn) inactive

Quick one: Nc1cc([N+](=O)[O-])ccc1O inactive

Quick one: CCCCC/C=C/C=C/C=O 35.6 µM (active)

Quick one: CC(=O)[C@H]1CC[C@H]2[C@@H]3CC=C4C[C@@H](O)CC[C@]4(C)[C@H]3CC[C@]12C inactive

Quick one: O=C(O)C[C@H](O)C[C@H](O)/C=C/c1c(C2CC2)nc2ccccc2c1-c1ccc(F)cc1 inactive

Quick one: CCCCC(CC)COC(=O)/C=C\C(=O)OCC(CC)CCCC (stereo not drawn) inactive

Quick one: OC[C@H]1O[C@H](O[C@]2(CCl)O[C@H](CCl)[C@@H](O)[C@@H]2O)[C@H](O)[C@@H](O)[C@H]1Cl inactive

Quick one: CC(C)(COC(=O)c1ccccc1)COC(=O)c1ccccc1 inactive

Quick one: O=P(c1ccccc1)(c1ccccc1)c1ccccc1 inactive

* * *

- Test target: Peroxisome proliferator-activated receptor gamma (Homo sapiens)
- Experiment summary: ATG_PPARg_TRANS: Attagene TRANS-FACTORIAL HepG2 Assay for human Peroxisome Proliferator-activated Receptor-gamma (PPARg) (AID 2283007)
Inconclusive results are not listed. Active and inactive are the calls of the source. How the source made its calls: active means hit-call score of the fitted dose curve at least 0.9, where 1 is the maximum; inconclusive means response in the unintended direction; inactive means score below 0.9.
API: response.call in class 1 for active, class 0 for inactive

Previously resolved entries follow.
>>> discrete_label("CSc1nnc(C(C)(C)C)c(=O)[nH]1")
"class 0"
>>> discrete_label("Cc1ccccc1C=O")
"class 0"
>>> discrete_label("C=C(C)C1CCC(C)CC1O (stereo not given)")
"class 0"

Test call for this molecule, please: CC(CN1c2ccccc2Sc2ccccc21)N(C)C (stereo not given) class 1

Quick one: CC(C=O)Cc1ccc(C(C)C)cc1 (stereo not given) class 0

Quick one: O=C(O)CCCCCCCC(=O)O class 0

Quick one: CCCCCCCCCC=O class 1

Quick one: CCC(C)CCCC(C)(C)O (stereo not given) class 0

Quick one: C=CC(=O)OCCOCCOCC class 1

Quick one: CC(=O)O[C@]1(C(C)=O)CC[C@H]2[C@@H]3C[C@H](C)C4=CC(=O)CC[C@]4(C)[C@H]3CC[C@@]21C class 1

Quick one: NC(=O)c1ccccc1Cl class 0

Quick one: Fc1c(F)c(F)c(Br)c(F)c1F class 0

Quick one: O=C(O)c1cccc([N+](=O)[O-])c1 class 0

Quick one: OCCOc1cccc(OCCO)c1 class 0

Quick one: CCc1ccc(C=O)cc1 class 0

Quick one: COc1nc(C)nc(N)n1 class 0

* * *

- Read-out: Interleukin-1 alpha (IL1a), IL1A (gene 3552)
- Experiment summary: BSK_KF3CT_IL1a: BioMAP Diversity Plus: KF3CT Assay for Interleukin-1 alpha (IL1a) Biomarker Activity (AID 2283070)
- Condition: primary human keratinocytes with fibroblasts; actives raise or lower the signal
Calls of active or inactive are those of the source. The calls were made as follows: active = hit-call score of the fitted dose curve at least 0.9, where 1 is the maximum; inactive = score below 0.9.
API: response.call in Yes for active, No for inactive

Previously resolved entries follow.
>>> discrete_label("Cc1ccc2n[nH]nc2c1")
"No"
>>> discrete_label("O=C(O)c1ccc([N+](=O)[O-])cc1")
"No"
>>> discrete_label("CNC[C@H](O)c1cccc(O)c1")
"No"

Test call for this compound, please: CCn1c2ccccc2c2cc(N)ccc21 No

Quick one: COC(=O)c1ccc(C)cc1 No

Quick one: CCCCC(CC)COCCC#N (configuration not stated) No

Quick one: CC(=O)O[C@]1(C(C)=O)CC[C@H]2[C@@H]3C[C@H](C)C4=CC(=O)CC[C@]4(C)[C@H]3CC[C@@]21C No

Quick one: O=C(O)c1cn(C2CC2)c2cc(N3CCNCC3)c(F)cc2c1=O No

Quick one: C[C@H]1C[C@@H]2[C@H]([C@@H](O)C[C@@]3(C)[C@H]2CC[C@]3(O)C(=O)CO)[C@@]2(C)C=CC(=O)C=C12 No

Quick one: C#C[C@]1(O)CC[C@H]2[C@@H]3CCC4=Cc5oncc5C[C@]4(C)[C@H]3CC[C@@]21C No

Quick one: CC[Si](OC(C)=O)(OC(C)=O)OC(C)=O No

Quick one: O=C1CCCCCCCCCCCCCCO1 No

Quick one: CCC(=O)OCc1ccccc1 No

Quick one: Nc1cc([N+](=O)[O-])ccc1Cl No

* * *

- Experiment summary: ATG_PPRE_CIS: Attagene CIS-FACTORIAL HepG2 Assay for human Peroxisome Proliferator-activated Response Element (PPRE) (AID 2282958)
- Condition: HepG2 PPRE cis-element reporter, Attagene transcription factor profiling; actives raise or lower the signal
- Procedure: ATG_CIS is a cell-based, multiplexed-readout assay that uses HepG2, a human liver cell line, with measurements taken at 24 hours after chemical dosing in a 24-well plate.ATG_PPRE_CIS is one of 52 assay component(s) measured or calculated from the ATG_CIS assay. […] This assay endpoint, ATG_PPRE_CIS, was analyzed with bidirectional fitting relative to DMSO as the negative control and baseline of activity. […]
Active and inactive are the calls of the source. How the source made its calls: active means hit-call score of the fitted dose curve at least 0.9, where 1 is the maximum; inactive means score below 0.9.
API: response.call in True (active), False (inactive)

Test call for this compound, please: COCCOCCOCCOCCOCCO False

Quick one: CCC(=O)OCc1ccccc1 False

Quick one: CCC(=O)/C=C/C1C(C)=CCCC1(C)C (configuration not stated) True

Quick one: CCCCC/C=C/C=C/C=O False

Quick one: O=C=NC1CCC(CC2CCC(N=C=O)CC2)CC1 (configuration not stated) True

Quick one: CC(C)(COC(=O)c1ccccc1)COC(=O)c1ccccc1 False

Quick one: c1ccc2sc(SN(C3CCCCC3)C3CCCCC3)nc2c1 False

Quick one: Cc1ccc(Nc2ccc(O)c3c2C(=O)c2ccccc2C3=O)cc1 False

Quick one: COC(=O)C1=C(C)NC(C)=C(C(=O)OCCN(C)Cc2ccccc2)C1c1cccc([N+](=O)[O-])c1 (configuration not stated) False

Quick one: Nc1cc(N)cc(C(=O)O)c1 False

Quick one: CC(=O)C(C)=O False

Quick one: COc1ccc(NC(=O)CC(C)=O)cc1 False

Quick one: CCCCOCCOCCOCCOCCO False

Quick one: Clc1ccc2c(c1)C(N1CCNCC1)=Nc1ccccc1O2 False
